Reported Binding of Control Serum Blood-Bank to Looped peptides of the protein M of SARS-CoV Urbani values for a set of sequences
test system: control sera (pooled serum of ten healthy LUMC hospital workers; commercial negative donor pooled serum from the Dutch bloodbank); format: binding, human; design: unit not given here
// print number alone

IMLLQFAYSNRNRFL : 0.5
RFLYIIKLVFLWLLW : 0.7
TSRTLSYYKLGASQR : 0.6
FVASFRLFARTRSMW : 0.6

Turning now to a further sequence:
Q: Look at this sequence and give its reported Binding of Control Serum Blood-Bank to Looped peptides of the protein M of SARS-CoV Urbani. SRTLSYYKLGASQRV
Ans: 0.6

====

tested on: control sera (pooled serum of ten healthy LUMC hospital workers; commercial negative donor pooled serum from the Dutch bloodbank); assay type: binding, human
Binding of Control serum LUMC to looped peptides strictly less than 0.6 = Criterion met. Otherwise Criterion not met.

Answered cases to consult:
TALQELLIQQWIQFM : Criterion not met
QELLIQQWIQFMMSR : Criterion met
GDQDLIRQGTDYKHW : Criterion met
FIRQEEVQQELYSPL : Criterion not met
ILFLTLIVFTSCELY : Criterion not met
PRGQGVPINTNSGPD : Criterion met
IVAALVFLILCFTIK : Criterion not met
LESTQITTDTGIENA : Criterion met
PKQRRPQGLPNNTAS : Criterion not met

Q: In the record for LTLIVFTSCELYHYQ , is Binding of Control serum LUMC to looped peptides less than 0.6?
Ans: Criterion not met

====

tested on: rabbit serum obtained by immunizing a rabbit with the SARS-CoV strain Frankfurt 1; assay type: binding; design: unit not given here
Binding of a rabbit serum to looped peptides strictly less than 0.5 = label 1. Otherwise label 0.

Answered cases to consult:
IMRCWLCWKGKSKNP : label 1
ASTVHATATIPLQAS : label 0
KLLQTLVLKMLHSSS : label 1
TKLVVILRIGTQVLK : label 0
RHSGVKDYVVVHGYF : label 1

Q: In the record for STQITTDTGIENATF , is Binding of a rabbit serum to looped peptides less than 0.5?
Ans: label 0

Q: What do you have for NLLLLFVTIYSHLLL ?
Ans: label 0

Q: What do you have for QFMMSRRRLLACLCK ?
Ans: label 0

Q: What do you have for YALIYFLQCINACRI ?
Ans: label 1

====

system: antibodies in sera from SARS patients (sera 1a, 1b, 2, 6, 37, 62, London, SARS-yellow, SARS-green); format: binding, human; parameters: unit not given here
Use 1 when the recorded Binding of serum 2 to looped/cyclic peptides of protein N of SARS-CoV Urbani is no lower than 0.4; use -1 when it is lower.

Answered cases to consult:
SRSSSRSRGNSRNST : -1
LLDRLNQLESKVSGK : -1
QQGQTVTKKSAAEAS : 1

Turning to the following sequence.
Q: Hello, I need to know if PTDSTDNNQNGGRNG has measured Binding of serum 2 to looped/cyclic peptides of protein N of SARS-CoV Urbani not below 0.4. Thanks!
Ans: -1

====

tested on: rabbit serum obtained by immunizing a rabbit with the SARS-CoV strain Frankfurt 1; assay type: binding; design: unit not given here
Reported Binding of a rabbit serum to looped peptides values for a set of sequences
// print number alone

For orientation, consider the following solved cases.
VYVYSRVKNLNSSEG : 0.4
TTSLSLHKLLQTLVL : 0.4
QASLPFGWLVIGVAF : 0.4
PKFTTSLSLHKLLQT : 0.4
HKLLQTLVLKMLHSS : 0.4
TQVLKTMSLYMAISP : 0.4

Q: Look at this sequence and give its reported Binding of a rabbit serum to looped peptides. ALYKGFQFICNLLLL
Ans: 0.4

Q: What do you have for RMCKYTQSTALQELL ?
Ans: 0.4

Q: What do you have for ITVSQIQLSLLKVTA ?
Ans: 0.4

Q: What do you have for IIMRCWLCWKCKSKN ?
Ans: 0.7

Q: What do you have for CCNIVNVSLVKPTVY ?
Ans: 0.0

Q: What do you have for WHTHNYDYCIPYNSV ?
Ans: 0.6

Q: What do you have for FFTLGSITAQPVKID ?
Ans: 0.0

Q: What do you have for KYTQSTALQELLIQQ ?
Ans: 0.4

====

Reported Binding of a rabbit serum to linear peptides values for a set of sequences
system: rabbit serum obtained by immunizing a rabbit with the SARS-CoV strain Frankfurt 1; format: binding; parameters: unit not given here
// print number alone

For orientation, consider the following solved cases.
TVYHITVSQIQLSLL : 0.7
LCAYCCNIVNVSLVK : 0.7
KPTVYVYSRVKNLNS : 0.6
SQIQLSLLKVTAFQH : 0.7
EDYQIGGYSEDRHSG : 0.1

Q: Look at this sequence and give its reported Binding of a rabbit serum to linear peptides. HRMCKYTQSTALQEL
Ans: 0.3

Q: What do you have for LLLVAAGMEAQFLYL ?
Ans: 0.2

Q: What do you have for AQPVKIDNASPASTV ?
Ans: 0.1

Q: What do you have for VSLVKPTVYVYSRVK ?
Ans: 1.5

Q: What do you have for CWLCWKCKSKNPLLY ?
Ans: 0.2

Q: What do you have for GDGISTPKLKEDYQI ?
Ans: 0.1

====

test system: control sera (pooled serum of ten healthy LUMC hospital workers; commercial negative donor pooled serum from the Dutch bloodbank); format: binding, human; design: unit not given here
Reported Binding of Control Serum Blood-Bank to Looped peptides values for a set of sequences
// print number alone

For orientation, consider the following solved cases.
FIRQEEVQQELYSPL : 0.9
GSQASSRSSSRSRGN : 0.6
NQRSAPRITFGGPTD : 0.6
EVYYQLESTQITTDT : 0.5
LSPRWYFYYLGTGPE : 0.5

Q: Look at this sequence and give its reported Binding of Control Serum Blood-Bank to Looped peptides. VAAGMEAQFLYLYAL
Ans: 0.5

Q: What do you have for AEGSRGGSQASSRSS ?
Ans: 0.6

Q: What do you have for LLIQQWTQFMMSRRR ?
Ans: 0.6

Q: What do you have for QIGGYSEDRHSGVKD ?
Ans: 0.3

Q: What do you have for GQGVPINTNSGPDDQ ?
Ans: 0.5

====

system: antibodies in sera from SARS patients (sera 1a, 1b, 2, 6, 37, 62, London, SARS-yellow, SARS-green); assay type: binding, human
Reported Binding of serum SARS-green to looped/cyclic peptides of protein X2 of SARS-CoV Urbani values for a set of sequences
// print number alone

Q: Look at this sequence and give its reported Binding of serum SARS-green to looped/cyclic peptides of protein X2 of SARS-CoV Urbani. LLKVTAFQHQNSKKT
Ans: 0.3

Q: What do you have for TTSLSLHKLLQTLVL ?
Ans: 0.3

Q: What do you have for MAISPKFTTSLSLHK ?
Ans: 0.4

Q: What do you have for KTHRMCKYTQSTALQ ?
Ans: 0.2

Q: What do you have for SLSLHKLLQTLVLKM ?
Ans: 0.3

Q: What do you have for LLKTHRMCKYTQSTA ?
Ans: 0.2

Q: What do you have for LLQTLVLKMLHSSSL ?
Ans: 0.3

Q: What do you have for KVTAFQHQNSKKTTK ?
Ans: 0.0

Q: What do you have for TVYHITVSQIQLSLL ?
Ans: 0.2

====

tested on: antibodies in sera from SARS patients (sera 1a, 1b, 2, 6, 37, 62, London, SARS-yellow, SARS-green); format: binding, human; parameters: unit not given here
readout.name: Binding of serum 37 to looped/cyclic peptides of protein N of SARS-CoV Urbani
// print number alone

For orientation, consider the following solved cases.
RPKQRRPQGLPNNTA : 0.5
QDLIRQGTDYKHWPQ : 0.5
TRRVRGGDGKMKELS : 0.4
TWLTYHGAIKLDDKD : 0.4
PINTNSGPDDQIGYY : 0.7
KEELRFPRGQGVPIN : 0.7

Q: Look at this sequence and give its reported Binding of serum 37 to looped/cyclic peptides of protein N of SARS-CoV Urbani. NTASWFTALTQHGKE
Ans: 0.4

====

system: control sera (pooled serum of ten healthy LUMC hospital workers; commercial negative donor pooled serum from the Dutch bloodbank); type: binding, human; design: unit not given here
Use yes (1) when the recorded Binding of Control serum Blood-bank to linear peptides is no lower than 0.7; use no (0) when it is lower.

Answered cases to consult:
TVTKKSAAEASKKPR : yes (1)
GDGKMKELSPRWYFY : no (0)
TPKLKEDYQIGGYSE : no (0)

Q: Hello, I need to know if LALYKGFQFICNLLL has measured Binding of Control serum Blood-bank to linear peptides not below 0.7. Thanks!
Ans: no (0)

Q: What do you have for APRITFGGPTDSTDN ?
Ans: no (0)

Q: What do you have for RRLLACLCKHKKVST ?
Ans: yes (1)

Q: What do you have for KDHIGTRNPNNNAAT ?
Ans: yes (1)

Q: What do you have for EASKKPRQKRTATKQ ?
Ans: yes (1)

Q: What do you have for VQTCTPNVTINCQDP ?
Ans: no (0)

Q: What do you have for LESTQITTDTGIENA ?
Ans: no (0)

Q: What do you have for HYQECVRGTTVLLKE ?
Ans: yes (1)

Source of measurements: patent US20070128217A1
